Target: T1, C. elegans LIN9-LIN52 heterodimeric Myb-binding domain complex (C. elegans, UniProt P30630 442-559; Q10120 75-139)
T1 construct: also called nematode LIN9-LIN52; ceLIN9; source: E. coli, co-expressed, purified (glutathione-sepharose, anion exchange, TEV cleavage, Superdex 200); not shown: GST, N-terminal, cleaved
T1 sequence (looked up) 1: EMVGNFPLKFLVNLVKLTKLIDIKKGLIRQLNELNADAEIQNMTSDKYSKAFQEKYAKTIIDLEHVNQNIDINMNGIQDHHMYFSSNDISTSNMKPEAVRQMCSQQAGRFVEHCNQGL
T1 sequence (looked up) 2: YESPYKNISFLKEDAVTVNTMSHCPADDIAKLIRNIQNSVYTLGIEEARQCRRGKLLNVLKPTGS
Assay: ITC; Myb fragment (~500 μM) in the syringe injected into LIN9-LIN52 heterodimer (~25–50 μM) at 25°C; 20 mM Tris, 150 mM NaCl, 1 mM beta mercaptoethanol, pH 8.0; MicroCal VP-ITC; triplicate
Conditions: both partners purified
Items are presented alongside their recorded pKd.
In simple prose, pKd is minus the logarithm base ten of a concentration in moles per litre.

Q: Which pKd value is on record for VIDPAAARVACGKSRDQMFMEEQAYACLKNL (domain or fragment, D. melanogaster, UniProt P04197 602-632, looked up, Expressed from the pGEX vector and 'purified as described for the LIN9-LIN52 complex'; also called KW; source: E. coli, purified (glutathione-sepharose, anion exchange, TEV cleavage, Superdex 200); not shown: GST, N-terminal, cleaved) ?
A: 4.15

Q: Which measured pKd value corresponds to VIDPKWARVACGKSRDQMFMEEQAYACLKNL (domain or fragment, D. melanogaster, UniProt P04197 602-632, looked up, Expressed from the pGEX vector and 'purified as described for the LIN9-LIN52 complex'; also called Drosophila Myb; dmMyb; source: E. coli, purified (glutathione-sepharose, anion exchange, TEV cleavage, Superdex 200); not shown: GST, N-terminal, cleaved) [Drosophila melanogaster Myb MuvB-binding domain (residues 602-632), wild type] ?
A: 5.15
